system: MS2 coat protein; test: apparent KD of MS2 coat protein; designed switch direction (-1 OFF switch, 1 ON switch): 1; higher = weaker reporter binding; details: Eterna round: R98; input ligand: none
Please provide measured apparent KD of MS2 coat protein for the entries that follow.
Give the value; after it, write the unit.

**Query** Which value of apparent KD of MS2 coat protein has been reported for GGAUCCAUCACAGGAUAUGCUGGACUUUGUCCAGCAGAAGGGUGAAACAUGAGGAUCACCCAUGUAAAGGAUCCUAUAUUUAAU [Denovo 26] in the records?
**Result** 291 nM

**Query** Now try AAAACAUGAGGAUCACCCAUGUAUAGAACGGUUAAUAAAAGUGAGGAUAUACUAAAUUUUAUAUAGUAGAAGGCACUGGGUACU [JR_SSNG3_Sub010] .
**Result** 17.1 nM

**Query** Now try GCGGAGGGCACAGGAUAUCGUCCUUAGUUGGUACGAGAAGGGUGGCGCUGCCACAUGAGGAUCACCCAUGUGCCCAAACUAUAG [Eresgeises] .
**Result** 211 nM

**Query** Now try GUAGCUAUCGCAGGAUAUCCUCAGGCGAAAGCCACAUGAGGAUCACCCAUGUAAUUAAAGAAAUUGGAGAAGGGCGAUAGCUAC [jl-sng2-2.38 Eli mod] .
**Result** 571 nM

**Query** Now try GGACUCACUUGAGGAUAUCGAGUGGAUAACACUCGAGAAGGCAGGAAAACCUGAGGAUCACCCAGGUAAGAGUCCAAUAAUAAU [Same State NG1 - A3C, U17G Submission 3D] .
**Result** 13.2 nM

**Query** Now try GAUUACUUCACAGGAUAUAAAAUAAAGCAGAUUUUAGAAGGGUGAGCCUCGUCGACCGCGACAUGAGGAUCACCCAUGUUGUGU [Bitetiqu] .
**Result** 29.3 nM

* * *

system: K4 kissing-loop RNA reporter; experiment: apparent KD of K4 kissing-loop reporter; higher = weaker reporter binding; conditions: Eterna round: R107; input ligand: FMN 200 uM;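 also: bound reporter read as fluorescence of individual clusters on recovered sequencing chips by microscopy, with normalized cluster intensities fitted with a binding model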
Cut-off 200 nM on apparent KD of K4 kissing-loop reporter, inclusive. At or above means yes (1); below means no (0).

**Query** Could you tell me if the measured apparent KD of K4 kissing-loop reporter of AGGCACGAGCAAGGAUAUCGAGUAGAGUGAUGUUCUGCCUGGGUUGGCUCGUAAGAGCCUUCUCAGCGAGAAGGUGCUCGUGCCU [#2 Same State - FMN A Attempt #20 (HarryS)] reaches 200 nM or more?
**Result** yes (1)

**Query** Now try UGUGAUGUUGUGAUGUUUAGUGUUGUUGGGCAGGAUAUUGUAGAGGCGAGAAGGGCUUGUGUGAUGUAUGAGUGAUGUUUGUAGU [cffdmullin] .
**Result** no (0)

**Query** Now try AAGCAGUCUCUUGUAACCAUCGAAGAUGGACGAGGACCGGUACGGCCGCCACUCGGAGUGAUGUUCCGAAGACUGCAAAAUAAAA [MatMod 15 - Jieux - Exclusion - Tryptophan A] .
**Result** yes (1)

**Query** Now try UAGAUAAUGUAAGAUUAUGAUAAUUGGGAAGGAGCGCGGAAAUUCGCAGGUAGGUCGCCCUAUAAAGUAGUACGAGUGAUGUUCG [6.)] .
**Result** yes (1)

**Query** Now try CGCAGUGAUGUUGCUAUUAUUCUUGAUUAACGAGGACCGGUACGGCCGCCACUCGAUUUCUAUCUAAUCCAGUGUUUUGUUGAGU [JR_ExcTryptoA_Sub002] .
**Result** yes (1)

**Query** Now try AAGUCUCGUUAAUUCGUGGUUUCGAUCGAUACCAGUAGCGAGAGGUACCCUUGGCAGCGAAAUGAGUGAUGUUCAUGAAAGAAGA [KL-XTheoA11] .
**Result** no (0)
